FYI, the data here is from patent US20240409585A1.

molecular target: PE-labeled human PD-L1-Ig binding to Jurkat cell line over-expressing human PD-1 (Jurkat-PD-1) (Homo sapiens); construct: expressed in transfected cells; host or cells: Jurkat; assay: Jurkat-PD-1 Cell Binding High-Content Screening Assay (CBA): Method 1; conditions: Jurkat-hPD-1 cells, PE-labeled PD-L1-Ig 20 nM final; read-out: Jurkat HPDL1 PD1 IC50 (uM) (Method 1)
Sequence (Q15116 25-288): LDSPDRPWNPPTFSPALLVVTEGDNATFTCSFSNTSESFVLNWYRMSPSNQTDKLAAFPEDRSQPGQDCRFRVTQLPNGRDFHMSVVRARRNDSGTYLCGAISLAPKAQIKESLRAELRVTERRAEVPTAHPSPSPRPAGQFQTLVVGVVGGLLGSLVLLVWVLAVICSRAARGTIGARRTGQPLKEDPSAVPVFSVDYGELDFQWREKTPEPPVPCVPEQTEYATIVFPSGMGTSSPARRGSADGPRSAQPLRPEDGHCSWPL
Bridge positions count the residues as written; N and C are the ends. Square brackets hold non-standard residues; d marks the D form. Peptide text beside a SMILES is read from it. Bip = N[C@@H](Cc1ccc(-c2ccccc2)cc1)C(=O)O; d(hPhe) = N[C@H](CCc1ccccc1)C(=O)O; dNle = CCCC[C@@H](N)C(=O)O; NMeA = CN[C@@H](C)C(=O)O; Dab = NCC[C@H](N)C(=O)O; Nva = CCC[C@H](N)C(=O)O; Dap = NC[C@H](N)C(=O)O; Aib = CC(C)(N)C(=O)O
Listed next: entries and their corresponding IC50.
Please respond with the number in µM and leave the unit unwritten.

Consider the worked cases shown below.
compound	IC50 [µM]
CC(C)C[C@@H]1NC(=O)[C@H](CCCNC(=N)N)NC(=O)[C@@H](CCc2ccccc2)NC(=O)[C@H](C)N(C)C(=O)[C@H](CCCNC(=N)N)NC(=O)[C@H](Cc2ccc(-c3ccccc3)cc2)NC(=O)[C@H](C(C)C)NC(=O)[C@H](Cc2c[nH]c3ccccc23)NC(=O)[C@H](CC(=O)O)NC(=O)[C@H](Cc2ccc(O)cc2)NC(=O)[C@H](Cc2ccccc2)NC(=O)CSC[C@@H](C(=O)NCC(N)=O)NC(=O)[C@H](CO)NC(=O)[C@H](C(C)C)NC1=O [Compound 1018] ({CH2CO}-FYDWV[Bip]R[NMeA][d(hPhe)]RLVSCG-NH2; thioether N-14)	0.12
CCCC[C@H]1NC(=O)[C@H](C)N(C)C(=O)[C@H](C(C)C)NC(=O)[C@H](Cc2ccc(-c3ccccc3)cc2)NC(=O)[C@H](CC(C)C)NC(=O)[C@H](Cc2c[nH]c3ccccc23)NC(=O)[C@H](CC(=O)O)NC(=O)[C@H](Cc2ccc(O)cc2)NC(=O)[C@H](Cc2ccccc2)NC(=O)CSC[C@@H](C(=O)N[C@@H](C)C(N)=O)NC(=O)[C@H](CO)NC(=O)[C@H](C(C)C)NC(=O)[C@H](CC(C)C)NC(=O)[C@H](CC(N)=O)NC1=O [Compound 1753] ({CH2CO}-FYDWL[Bip]V[NMeA][dNle]NLVSCA-NH2; thioether N-14)	0.03
CC(C)C[C@@H]1NC(=O)[C@H](CC(N)=O)NC(=O)[C@@H](CC(C)C)NC(=O)[C@H](C)N(C)C(=O)[C@H](C(C)C)NC(=O)[C@H](Cc2ccc(-c3ccccc3)cc2)NC(=O)[C@H](CCN)NC(=O)[C@H](Cc2c[nH]c3ccccc23)NC(=O)[C@H](CC(=O)O)NC(=O)[C@H](Cc2ccc(O)cc2)NC(=O)[C@H](Cc2ccccc2)NC(=O)CSC[C@@H](C(=O)N[C@@H](C)C(N)=O)NC(=O)[C@H](CO)NC(=O)[C@H](C(C)C)NC1=O [Compound 2025] ({CH2CO}-FYDW[Dab][Bip]V[NMeA][dL]NLVSCA-NH2; thioether N-14)	0.26
CC(C)C[C@@H]1NC(=O)[C@H](CCCNC(=N)N)NC(=O)[C@@H](CC(C)C)NC(=O)[C@H](C)N(C)C(=O)[C@H](CCCNC(=N)N)NC(=O)[C@H](Cc2ccc(-c3ccccc3)cc2)NC(=O)[C@H](C(C)C)NC(=O)[C@H](Cc2c[nH]c3ccccc23)NC(=O)[C@H](CC(=O)O)NC(=O)[C@H](Cc2ccc(O)cc2)NC(=O)[C@H](CC(N)=O)NC(=O)CSC[C@@H](C(=O)NCC(N)=O)NC(=O)[C@H](CO)NC(=O)[C@H](C(C)C)NC1=O [Compound 1253] ({CH2CO}-NYDWV[Bip]R[NMeA][dL]RLVSCG-NH2; thioether N-14)	0.03
CC(C)C[C@@H]1NC(=O)[C@H](Cc2c[nH]c3ccccc23)NC(=O)[C@H](CC(=O)O)NC(=O)[C@H](Cc2ccc(O)cc2)NC(=O)[C@H](Cc2ccccc2)NC(=O)CSC[C@@H](C(=O)NCC(N)=O)NC(=O)[C@H](CO)NC(=O)[C@H](C(C)C)NC(=O)[C@H](CC(C)C)NC(=O)[C@H](CC(N)=O)NC(=O)C(C)(C)NC(=O)[C@H](C)N(C)C(=O)[C@H](C(C)C)NC(=O)[C@H](Cc2ccc(-c3ccccc3)cc2)NC1=O [Compound 1818] ({CH2CO}-FYDWL[Bip]V[NMeA][Aib]NLVSCG-NH2; thioether N-14)	0.42
CCC[C@@H]1NC(=O)[C@H](Cc2ccc(-c3ccccc3)cc2)NC(=O)[C@H](C(C)C)NC(=O)[C@H](Cc2c[nH]c3ccccc23)NC(=O)[C@H](CC(=O)O)NC(=O)[C@H](Cc2ccc(O)cc2)NC(=O)[C@H](CC(N)=O)NC(=O)CSC[C@@H](C(=O)N[C@@H](C)C(N)=O)NC(=O)[C@H]([C@@H](C)O)NC(=O)[C@H](C(C)C)NC(=O)[C@H](CC(C)C)NC(=O)[C@H](CCN)NC(=O)[C@@H](CC(C)C)NC(=O)[C@H](C)N(C)C1=O [Compound 1258] ({CH2CO}-NYDWV[Bip][Nva][NMeA][dL][Dab]LVTCA-NH2; thioether N-14)	0.04
CC(C)C[C@@H]1NC(=O)[C@H](Cc2c[nH]c3ccccc23)NC(=O)[C@H](CC(=O)O)NC(=O)[C@H](Cc2ccc(O)cc2)NC(=O)[C@H](Cc2ccccc2)NC(=O)CSC[C@@H](C(=O)N[C@@H](C)C(N)=O)NC(=O)[C@H](CO)NC(=O)[C@H](CN)NC(=O)[C@H](CC(C)C)NC(=O)[C@H](CC(N)=O)NC(=O)[C@@H](C)NC(=O)[C@H](C)N(C)C(=O)[C@H](C(C)C)NC(=O)[C@H](Cc2ccc(-c3ccccc3)cc2)NC1=O [Compound 1532] ({CH2CO}-FYDWL[Bip]V[NMeA][dA]NL[Dap]SCA-NH2; thioether N-14)	0.17

Read the next record carefully.
Exam item: Can you look up the measured IC50 of CC(C)C[C@@H]1NC(=O)[C@H](CCCNC(=N)N)NC(=O)[C@@H](CC(C)C)NC(=O)[C@H](C)N(C)C(=O)[C@H](C(C)C)NC(=O)[C@H](Cc2ccc(-c3ccccc3)cc2)NC(=O)[C@H](C(C)C)NC(=O)[C@H](Cc2c[nH]c3ccccc23)NC(=O)[C@H](CC(=O)O)NC(=O)[C@H](Cc2ccc(O)cc2)NC(=O)[C@H](CC(N)=O)NC(=O)CSC[C@@H](C(=O)N[C@@H](C)C(N)=O)NC(=O)[C@H]([C@@H](C)O)NC(=O)[C@H](C(C)C)NC1=O [Compound 1216] ({CH2CO}-NYDWV[Bip]V[NMeA][dL]RLVTCA-NH2; thioether N-14) for me?
Marked response: 0.03
